Where do these numbers come from? They come from patent US20140120095A1.

- test_system: VEGF (used to stimulate HUVEC cells) (UniProt P15692-4 27-191, limits assumed)
- Sequence (P15692 other isoform, or with tags, fused parts or gaps limits assumed): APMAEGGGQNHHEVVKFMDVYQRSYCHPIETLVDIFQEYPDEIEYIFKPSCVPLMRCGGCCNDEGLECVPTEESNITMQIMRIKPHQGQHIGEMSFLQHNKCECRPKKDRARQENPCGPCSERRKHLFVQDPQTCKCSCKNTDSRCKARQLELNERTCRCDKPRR
- assay_text: cell-based or functional assay
Reported % inhibition, VEGF HUVEC proliferation assay values for the following binders.
Return type: number; implicit unit %.

Sample answers from the record:
{"binder": "VEGFBII021 (VHH, not shown: small tags and cut ends, Bivalent (heterodimeric) anti-VEGF VHH; also called VEGFBII23B04-40GS-5B05) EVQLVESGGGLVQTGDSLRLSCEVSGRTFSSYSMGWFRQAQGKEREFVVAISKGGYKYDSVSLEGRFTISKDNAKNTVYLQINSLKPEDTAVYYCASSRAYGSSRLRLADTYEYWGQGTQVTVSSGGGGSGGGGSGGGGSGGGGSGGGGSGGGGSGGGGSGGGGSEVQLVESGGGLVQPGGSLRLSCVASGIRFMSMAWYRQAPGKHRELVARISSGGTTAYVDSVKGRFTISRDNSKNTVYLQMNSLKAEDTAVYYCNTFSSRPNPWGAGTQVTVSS", "readout_value": 98}
{"binder": "VEGFBII022 (VHH, not shown: small tags and cut ends, Bivalent (heterodimeric) anti-VEGF VHH; also called VEGFBII23B04-9GS-5B05) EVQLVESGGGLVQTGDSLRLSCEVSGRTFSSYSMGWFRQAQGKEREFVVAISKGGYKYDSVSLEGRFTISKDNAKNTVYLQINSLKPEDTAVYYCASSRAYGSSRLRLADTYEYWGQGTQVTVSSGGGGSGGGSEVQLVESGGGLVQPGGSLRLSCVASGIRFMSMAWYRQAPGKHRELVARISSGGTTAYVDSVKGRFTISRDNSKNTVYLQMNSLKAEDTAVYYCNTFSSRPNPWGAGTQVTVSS", "readout_value": 100}
{"binder": "VEGFBII024 (VHH, not shown: small tags and cut ends, Bivalent anti-VEGF VHH; also called VEGFBII23B04-40GS-86H09) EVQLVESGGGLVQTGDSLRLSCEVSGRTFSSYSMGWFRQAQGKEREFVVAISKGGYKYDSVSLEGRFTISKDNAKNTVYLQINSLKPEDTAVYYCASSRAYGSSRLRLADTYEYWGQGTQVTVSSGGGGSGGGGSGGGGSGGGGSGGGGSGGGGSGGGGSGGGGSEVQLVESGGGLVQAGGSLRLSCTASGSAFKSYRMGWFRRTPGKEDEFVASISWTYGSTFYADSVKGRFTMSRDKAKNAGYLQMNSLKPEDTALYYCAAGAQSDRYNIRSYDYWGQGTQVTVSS", "readout_value": 96}

Q. For the binder VEGFBII010 (VHH, not shown: small tags and cut ends, Homodimeric bivalent anti-VEGF VHH; also called VEGFBII23B04-35GS-23B04) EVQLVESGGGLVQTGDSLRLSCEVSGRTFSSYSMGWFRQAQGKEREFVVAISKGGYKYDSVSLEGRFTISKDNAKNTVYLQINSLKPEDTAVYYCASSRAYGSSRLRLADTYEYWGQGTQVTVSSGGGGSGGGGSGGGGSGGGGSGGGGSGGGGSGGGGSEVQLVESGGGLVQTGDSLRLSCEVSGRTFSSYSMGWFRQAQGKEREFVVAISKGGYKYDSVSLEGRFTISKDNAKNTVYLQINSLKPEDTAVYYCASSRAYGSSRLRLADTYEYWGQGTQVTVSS , what % inhibition, VEGF HUVEC proliferation assay is on record?
A. 95
